Source of measurements: patent US20250171495A1

study system: Factor Xa (Homo sapiens)
Construct: TMPRSS2; Matriptase; Hepsin; HGFA; Thrombin; Factor Xa
Sequence (P00742 235-488 limits assumed): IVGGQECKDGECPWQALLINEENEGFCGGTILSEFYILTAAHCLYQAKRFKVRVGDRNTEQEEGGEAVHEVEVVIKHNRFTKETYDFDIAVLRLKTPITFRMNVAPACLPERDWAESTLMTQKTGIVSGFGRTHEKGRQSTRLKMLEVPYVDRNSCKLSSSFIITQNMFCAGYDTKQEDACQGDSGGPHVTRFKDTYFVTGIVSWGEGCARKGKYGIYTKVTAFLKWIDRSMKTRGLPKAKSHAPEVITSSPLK
Sequence (P00742 41-179 partner limits assumed): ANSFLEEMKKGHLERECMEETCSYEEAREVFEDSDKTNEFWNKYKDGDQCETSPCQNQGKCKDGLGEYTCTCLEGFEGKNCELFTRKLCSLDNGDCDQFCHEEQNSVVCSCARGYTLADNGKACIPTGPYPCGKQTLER
procedure summary: Fluorogenic assay, Factor Xa
Type: biochemical
protocol conditions: read-out: Factor Xa IC50
pIC50: −log10 of the molar value. Numbered stars: 1 amine (or outer) side, 2 acyl side, 3 side chain; on linkers, the order of the positions; unused ones are H or OH. Square brackets hold non-standard residues; d marks the D form. Peptide text beside a SMILES is read from it. X1 = N=C(N)NCCC[C@H](N[*:1])C(=O)c1nc2ccc(C(=O)[*:2])cc2s1
Label scheme for pIC50: lower than 7 is not met, 7 and above is met.

Consider the worked cases shown below.
- compound: "CC(=O)N[C@@H](Cc1ccccc1)C(=O)N[C@@H](CC(C)C)C(=O)N[C@@H](Cc1ccccc1)C(=O)N[C@@H](CCCNC(=N)N)C(=O)c1nc2ccccc2s1"
  class: "met"
- compound: "CC(=O)N[C@@H](CO)C(=O)N[C@@H](CCCCN)C(=O)N[C@@H](CC(C)C)C(=O)N[C@@H](CCCNC(=N)N)C(=O)c1nc2ccc(C(=O)N[C@H](C(N)=O)C(C)C)cc2s1 [ZFH7116] (Ac-SKL[X1]V-NH2)"
  class: "not met"
- compound: "CC(=O)N1CCC[C@H]1C(=O)N[C@@H](CCC(N)=O)C(=O)N[C@@H](Cc1ccccc1)C(=O)N[C@@H](CCCNC(=N)N)C(=O)c1nc2ccccc2s1"
  class: "not met"
- compound: "N=C(N)NCCC[C@H](NC(=O)[C@H](Cc1ccccc1)NC(=O)[C@H](CCC(N)=O)NCCc1ccccc1)C(=O)c1nc2ccccc2s1"
  class: "not met"
- compound: "CCC(C)[C@H](NC(C)=O)C(=O)N[C@@H](CCC(N)=O)C(=O)N[C@@H](C)C(=O)N[C@@H](CCCNC(=N)N)C(=O)c1nc2ccccc2s1 (some centres unmarked)"
  class: "not met"
- compound: "CC(=O)N[C@@H](Cc1c[nH]c2ccccc12)C(=O)N[C@@H](CC(C)C)C(=O)N[C@@H](Cc1ccccc1)C(=O)N[C@@H](CCCNC(=N)N)C(=O)c1nc2ccccc2s1"
  class: "met"

Ask: Assess whether reported pIC50 for CC(=O)N[C@H]1CCCCn2cc(nn2)C[C@H](C(=O)N[C@H](CCCNC(=N)N)C(=O)c2nc3ccccc3s2)NC(=O)[C@H](CC(C)C)NC1=O [VD4118A] sits at 7 or higher.
Result: not met

Ask: Please indicate if the recorded pIC50 for CC(=O)N[C@H]1Cc2ccc(cc2)OCCCC[C@@H](C(=O)N[C@H](CCCNC(=N)N)C(=O)c2nc3ccccc3s2)NC(=O)[C@@H](Cc2c[nH]c3ccccc23)NC1=O [VD4162A] meets or exceeds 7.
Result: not met

----------
study system: matriptase (Homo sapiens, UniProt Q9Y5Y6)
Construct: purchased R&D Systems 3946-SEB-010
Sequence (Q9Y5Y6 615-855 limits assumed): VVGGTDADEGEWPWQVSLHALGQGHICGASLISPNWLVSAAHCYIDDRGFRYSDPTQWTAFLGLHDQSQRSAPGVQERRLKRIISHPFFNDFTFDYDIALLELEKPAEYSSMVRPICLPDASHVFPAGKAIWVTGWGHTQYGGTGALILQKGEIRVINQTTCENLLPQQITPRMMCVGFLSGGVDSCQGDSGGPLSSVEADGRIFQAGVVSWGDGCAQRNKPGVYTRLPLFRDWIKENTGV
procedure summary: Fluorogenic kinetic enzyme inhibitor assay, matriptase
Assay type: biochemical
protocol conditions: read-out: Matriptase IC50
quantity name: pIC50
Interpret pIC50 as the negative base-10 log of the concentration measured in mol/L.

- entry smiles: "N=C(N)NCCC[C@H](NC(=O)[C@H](CCC1CCCCC1)NC(=O)OCC1c2ccccc2-c2ccccc21)C(=O)c1nc2ccccc2s1"
  study system: "matriptase (Homo sapiens, UniProt Q9Y5Y6)"
  obs value: 7.74
- entry smiles: "CC(=O)N[C@H]1CC(=O)NCCCC[C@@H](C(=O)N[C@@H](CCCNC(=N)N)C(=O)c2nc3ccccc3s2)NC(=O)[C@H](CCC(N)=O)NC1=O"
  study system: "matriptase (Homo sapiens, UniProt Q9Y5Y6)"
  obs value: 8.11
- entry smiles: "CC(=O)NCC(=O)N[C@@H](CCC(N)=O)C(=O)N[C@@H](Cc1ccccc1)C(=O)N[C@@H](CCCNC(=N)N)C(=O)c1nc2ccccc2s1"
  study system: "matriptase (Homo sapiens, UniProt Q9Y5Y6)"
  obs value: 9.50
- entry smiles: "N=C(N)NCCC[C@H](NC(=O)[C@@H](NC(=O)OCc1ccccc1)c1cccs1)C(=O)c1nc2ccccc2s1"
  study system: "matriptase (Homo sapiens, UniProt Q9Y5Y6)"
  obs value: 7.43
- entry smiles: "CC(=O)N[C@@H](Cc1c[nH]c2ccccc12)C(=O)N[C@@H](Cc1ccccc1)C(=O)N[C@@H](CCCNC(=N)N)C(=O)c1nc2ccccc2s1"
  study system: "matriptase (Homo sapiens, UniProt Q9Y5Y6)"
  obs value: 8.24
- entry smiles: "CC(=O)N[C@H](Cc1c[nH]c2ccccc12)C(=O)N[C@@H](CC(C)C)C(=O)N[C@@H](CCCNC(=N)N)C(=O)c1nc2ccccc2s1"
  study system: "matriptase (Homo sapiens, UniProt Q9Y5Y6)"
  obs value: 7.41

Now turn to the next compound.
Ask: # return recorded pIC50 for entry CC(=O)N[C@@H](CO)C(=O)NCc1ccc(CC(=O)N[C@@H](CC(C)C)C(=O)N[C@@H](CCCNC(=N)N)C(=O)c2nc3ccccc3s2)cc1
Result: 8.02

----------
The entries below are paired with their reported P2 Position Substrate Activity for TMPRSS2 (percent substrate cleavage/proteolysis).
study system: TMPRSS2 (Homo sapiens)
procedure summary: PS-SCL / HyCoSuL substrate specificity screening, TMPRSS2
Type: biochemical
protocol conditions: residue fixed at P2 position of substrate library; best recognized amino acid set to 100%
Sequence (O15393 whole entry): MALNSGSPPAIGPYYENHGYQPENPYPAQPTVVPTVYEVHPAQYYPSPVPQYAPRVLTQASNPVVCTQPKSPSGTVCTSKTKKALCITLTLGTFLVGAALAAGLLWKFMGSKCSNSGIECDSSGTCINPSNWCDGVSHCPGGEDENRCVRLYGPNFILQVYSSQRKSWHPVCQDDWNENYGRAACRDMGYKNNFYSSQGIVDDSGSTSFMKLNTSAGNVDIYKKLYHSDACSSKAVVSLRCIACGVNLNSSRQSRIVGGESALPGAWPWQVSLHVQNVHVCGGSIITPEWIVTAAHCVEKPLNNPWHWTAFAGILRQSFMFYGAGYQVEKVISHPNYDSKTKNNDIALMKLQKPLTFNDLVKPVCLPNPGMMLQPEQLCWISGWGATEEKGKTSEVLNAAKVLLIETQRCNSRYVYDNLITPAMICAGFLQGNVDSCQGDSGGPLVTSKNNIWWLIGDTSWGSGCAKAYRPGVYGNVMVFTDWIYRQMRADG
Express the result in % but write the number alone.

- entry smiles: "CC(C)[C@H](N)C(=O)O"
  obs value: 28.86
- entry smiles: "CC(C)CC[C@H](N)C(=O)O"
  obs value: 8.15
- entry smiles: "O=C(O)[C@@H]1CCCCN1"
  obs value: 24.73
- entry smiles: "N[C@@H](Cc1ccc(F)cc1)C(=O)O"
  obs value: 100.00
- entry smiles: "NC1(C(=O)O)CCCC1"
  obs value: 0.00

Ask: Return value of P2 Position Substrate Activity for TMPRSS2 (percent substrate cleavage/proteolysis) for input Cn1cc(C[C@H](N)C(=O)O)c2ccccc21 , no commentary.
Result: 32.33

Ask: Supply P2 Position Substrate Activity for TMPRSS2 (percent substrate cleavage/proteolysis) value. Item: N[C@@H](CCCCOCc1ccccc1)C(=O)O
Result: 52.14

----------
Form field: pIC50 (one value per entry).
study system: matriptase (Homo sapiens, UniProt Q9Y5Y6)
Construct: purchased R&D Systems 3946-SEB-010
procedure summary: Fluorogenic kinetic enzyme inhibitor assay, matriptase
Type: biochemical
protocol conditions: 30 min incubation, Boc-QAR-AMC at Km; read-out: Matriptase IC50
Note on units: pIC50 is unitless, being -log10 of a concentration expressed in mol/L.

- compound: "CC(=O)N[C@H]1Cc2ccc(cc2)OCCCC[C@@H](C(=O)N[C@@H](CCCNC(=N)N)C(=O)c2nc3ccccc3s2)NC(=O)[C@H](CC(C)C)NC1=O"
  study system: "matriptase (Homo sapiens, UniProt Q9Y5Y6)"
  pIC50: 7.49
- compound: "CC(=O)N[C@H]1Cc2ccc(cc2)OC/C=C\\C[C@@H](C(=O)N[C@@H](CCCNC(=N)N)C(=O)c2nc3ccccc3s2)NC(=O)[C@@H](Cc2c[nH]c3ccccc23)NC1=O"
  study system: "matriptase (Homo sapiens, UniProt Q9Y5Y6)"
  pIC50: 8.25
- compound: "CC(=O)N[C@H]1Cc2ccc(cc2)OCCCC[C@@H](C(=O)N[C@@H](CCCNC(=N)N)C(=O)c2nc3ccccc3s2)NC(=O)[C@@H](Cc2c[nH]c3ccccc23)NC1=O [VD4162B]"
  study system: "matriptase (Homo sapiens, UniProt Q9Y5Y6)"
  pIC50: 8.54
- compound: "CC(=O)N[C@H]1CCCCn2cc(nn2)C[C@H](C(=O)N[C@@H](CCCNC(=N)N)C(=O)c2nc3ccccc3s2)NC(=O)[C@H](CC(C)C)NC1=O [VD4118B]"
  study system: "matriptase (Homo sapiens, UniProt Q9Y5Y6)"
  pIC50: 7.04

Alright, here's another compound for you.
Ask: Let me know recorded pIC50 for CC(=O)N[C@H]1Cc2ccc(cc2)OCCCC[C@@H](C(=O)N[C@@H](CCCNC(=N)N)C(=O)c2nc3ccccc3s2)NC(=O)[C@H](Cc2c[nH]c3ccccc23)NC1=O , thanks.
Result: 7.25

----------
Listing of recorded pIC50 by entry.
study system: TMPRSS2 (Homo sapiens)
procedure summary: Fluorogenic kinetic enzyme inhibitor assay, TMPRSS2
Type: biochemical
Set-up: purchased Cusabio Technology CSB-YP023924HU
protocol conditions: read-out: TMPRSS2 IC50
Sequence (O15393 106-492 limits assumed): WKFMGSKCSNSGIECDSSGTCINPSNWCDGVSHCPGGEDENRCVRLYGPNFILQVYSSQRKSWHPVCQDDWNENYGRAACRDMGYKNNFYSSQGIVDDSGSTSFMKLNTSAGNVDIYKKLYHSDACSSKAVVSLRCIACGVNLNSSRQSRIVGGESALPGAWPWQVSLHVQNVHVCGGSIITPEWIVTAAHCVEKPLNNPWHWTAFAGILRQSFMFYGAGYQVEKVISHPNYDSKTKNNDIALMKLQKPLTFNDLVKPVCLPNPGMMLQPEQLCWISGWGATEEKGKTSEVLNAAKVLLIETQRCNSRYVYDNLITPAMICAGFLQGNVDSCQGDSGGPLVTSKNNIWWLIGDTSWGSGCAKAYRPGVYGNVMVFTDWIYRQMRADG
The meaning of pIC50 here: minus log10 of the concentration in molar units.

Solved cases (5 shown):
- compound: "N=C(N)NCCC[C@H](NC(=O)[C@H](Cc1cccs1)NC(=O)OCC1c2ccccc2-c2ccccc21)C(=O)c1nc2ccccc2s1 [MF1184]"
  study system: "TMPRSS2 (Homo sapiens)"
  obs value: 9.33
- compound: "N=C(N)NCCC[C@H](NC(=O)[C@H](Cc1ccccc1)NC(=O)OCC1c2ccccc2-c2ccccc21)C(=O)c1nc2ccccc2s1 [MF1133]"
  study system: "TMPRSS2 (Homo sapiens)"
  obs value: 7.71
- compound: "CC(=O)N1CCC[C@H]1C(=O)N[C@@H](CO)C(=O)N[C@@H](CCCCN)C(=O)N[C@@H](CCCNC(=N)N)C(=O)c1nc2ccccc2s1 [MM3194A]"
  study system: "TMPRSS2 (Homo sapiens)"
  obs value: 9.54
- compound: "CC(=O)N1CCC[C@H]1C(=O)N[C@@H](CCC(N)=O)C(=O)N[C@@H](Cc1ccccc1)C(=O)N[C@@H](CCCNC(=N)N)C(=O)c1nc2ccccc2s1 [MM3123]"
  study system: "TMPRSS2 (Homo sapiens)"
  obs value: 10.22
- compound: "N=C(N)NCCC[C@H](NC(=O)[C@H](Cc1ccccc1)NC(=O)[C@H](N)Cc1c[nH]c2ccccc12)C(=O)c1nc2ccc(C(=O)O)cc2s1 [PK-1-45A1]"
  study system: "TMPRSS2 (Homo sapiens)"
  obs value: 8.71

Next:
Ask: Note pIC50 for the compound shown: N=C(N)NCCC[C@H](NC(=O)[C@H](Cc1ccccc1)NC(=O)[C@H](N)Cc1c[nH]c2ccccc12)C(=O)c1nc2ccccc2s1 [PK-1-18A1]
Result: 7.59
